Where do these numbers come from? They come from patent US20100267561A1.

System: ducksalad (Heteranthera limosa)
Test: Test B flooded paddy test plant response
Assay type: in vivo
Settings: Flood (flooded paddy test), 125 g ai/ha; scale 0 to 100, 0 no effect, 100 complete control

| structure as smiles | Plant response rating, Ducksalad |
| --- | --- |
| Cc1cc(-c2ccc(Cl)cc2)nn1-c1c(OC(=O)c2cccc(Cl)c2)cnn(C)c1=O | 40 |
| CCCC(=O)Oc1cnn(C)c(=O)c1-n1nc(-c2ccc(Cl)cc2)cc1C | 40 |
| Cc1cc(-c2ccc(OC(F)(F)F)cc2)nn1-c1c(O)cnn(C)c1=O | 40 |

###

Tested on: corn (Zea mays)
Test: Test B pre-/postemergence plant response
Type: in vivo
Conditions: Postemergence, 62 g ai/ha; scale 0 to 100, 0 no effect, 100 complete control
Where Plant response rating, Corn equals or exceeds 90, the correct label is fulfilled; where it does not, the label is not fulfilled.

| compound | answer label |
| --- | --- |
| Cc1cc(-c2ccc(Cl)cc2)nn1-c1c(OC(=O)c2cccc(Cl)c2)cnn(C)c1=O [Compound 32] | not fulfilled |
| COc1nn(C)c(=O)c(-n2nc(-c3ccc(Br)cc3)cc2C)c1O [Compound 82] | fulfilled |
| CCCC(=O)Oc1cnn(C)c(=O)c1-n1nc(-c2ccc(Cl)cc2)cc1C [Compound 56] | fulfilled |
| Cc1cc(-c2ccc(Cl)cc2)nn1-c1c(OC(=O)c2cccs2)cnn(C)c1=O [Compound 52] | fulfilled |
